Test system: Saccharomyces cerevisiae
assay-method-text: protein stability index of tFT-peptide fusion (C-terminal peptide) (PSI (0-1 scale)); higher = more stable (slower turnover)
condition-description: genetic background: wild type; temperature: 30 C
Classify by measured protein stability index: Condition met if it is equal to or exceeds 0.7, Condition not met if it is smaller.

Completed entries (count: 3):
seq-string: LVRGRFVVFSGM
label: Condition not met

seq-string: RRRGEREKRPRA
label: Condition not met

seq-string: LAHAGSRPPTPG
label: Condition not met

Lab note: next sequence to report on.
Identify whether the reported protein stability index of the following sequence is 0.7 or greater: ERVEETGREQPT
Condition met

* * *

System: Saccharomyces cerevisiae
assay-method-text: protein stability index of tFT-peptide fusion (C-terminal peptide) (PSI (0-1 scale)); higher = more stable (slower turnover)
condition-description: genetic background: das1 deletion; temperature: 30 C
endpoint: protein stability index
# answer = number (no unit)

seq-string: NGNNVASLNTKK [TAF12 C-terminal 12 aa]
target-of-assay: Saccharomyces cerevisiae
endpoint: protein stability index
experimental-value: 0.687

Consider the sequence shown here: AYFIDVVGCSGL [LIH1 C-terminal 12 aa] What is its recorded protein stability index?
0.706

Subsequent entry: KHGLNDWIVGQK [YPL225W C-terminal 12 aa]
0.712

Subsequent entry: QVKLSILKSLGF [UBC7 C-terminal 12 aa]
0.702

Subsequent entry: ELANILESDITL [CIN1 C-terminal 12 aa]
0.709

Subsequent entry: EEKKKKKIAESK [TIM50 C-terminal 12 aa]
0.681

Subsequent entry: ALSEYMENTSGL [RSC9 C-terminal 12 aa]
0.696

Subsequent entry: TPEDADEEEDDE [RPL22B C-terminal 12 aa]
0.692

Subsequent entry: RRKITLIEDDEE [SAS3 C-terminal 12 aa]
0.715

* * *

Consider the following sequences and their measured protein stability index readings.
Test system: Saccharomyces cerevisiae
assay-method-text: protein stability index of tFT-peptide fusion (C-terminal peptide) (PSI (0-1 scale)); higher = more stable (slower turnover)
condition-description: genetic background: wild type; temperature: 30 C
# answer = number (no unit)

Use the examples below as a reference point.
seq-string: FFMEKPSSGCTS
experimental-value: 0.685
//
seq-string: QNTTESANWSIT
experimental-value: 0.696

Form field: protein stability index recorded for LPHPRPPQSPPQ with Saccharomyces cerevisiae (enter value)
0.7

* * *

System: Saccharomyces cerevisiae
assay-method-text: protein stability index of tFT-peptide fusion (C-terminal peptide) (PSI (0-1 scale)); higher = more stable (slower turnover)
condition-description: genetic background: cdc53-1; temperature: 37 C
Consider the following sequences and their measured protein stability index readings.
# answer = number (no unit)

Use the examples below as a reference point.
seq-string: EKKNQTAYNKTV
protein stability index: 0.71

seq-string: EKTKTKRERKIN
protein stability index: 0.696

Consider the sequence shown here: YRHYGVARKKLA What is its recorded protein stability index?
0.702

Subsequent entry: RRGGNIVWYCLV
0.694

Subsequent entry: GVLRMAPGRVMC
0.704

* * *

Consider the following sequences and their measured protein stability index readings.
System: Saccharomyces cerevisiae
assay-method-text: protein stability index of tFT-peptide fusion (C-terminal peptide) (PSI (0-1 scale)); higher = more stable (slower turnover)
condition-description: genetic background: wild type; temperature: 30 C
# answer = number (no unit)

seq-string: ARCLTGFYSFTF
experimental-value: 0.794

Form field: protein stability index recorded for GRRWGGERVREG with Saccharomyces cerevisiae (enter value)
0.66

Subsequent entry: APGPPLLLPPPL
0.697

Subsequent entry: GPPPLPSPPSHP
0.753

Subsequent entry: LWVSSGASCFIL
0.724

These measurements were taken from the supplement of paper PMC10724198.
